# targetOfAssay: D(3) dopamine receptor (Homo sapiens, UniProt P35462)
# Sequence (P35462 whole entry): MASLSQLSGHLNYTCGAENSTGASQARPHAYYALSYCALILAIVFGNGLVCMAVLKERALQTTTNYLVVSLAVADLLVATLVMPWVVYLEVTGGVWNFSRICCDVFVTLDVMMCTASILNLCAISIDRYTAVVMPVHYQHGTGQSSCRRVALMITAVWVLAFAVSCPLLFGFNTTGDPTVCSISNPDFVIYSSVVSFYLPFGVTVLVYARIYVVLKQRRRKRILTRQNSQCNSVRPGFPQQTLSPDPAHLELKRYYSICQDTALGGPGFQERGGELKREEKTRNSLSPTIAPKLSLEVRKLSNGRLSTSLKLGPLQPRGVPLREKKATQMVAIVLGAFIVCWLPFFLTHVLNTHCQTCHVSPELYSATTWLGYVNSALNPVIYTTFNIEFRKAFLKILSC
Collected log10 Ki values appear next to each entry.
Friendly reminder: values = log10 of Ki, unit nM.

In the examples that follow, each entry is paired with its recorded log10 Ki.
CCCN(CCC)CC[C@H]1CC[C@H](Nc2ncccn2)CC1: 2.90
c1cnc(N[C@H]2CC[C@H](CCN3CCN(c4ccncc4)CC3)CC2)nc1: 3.36
COc1ccccc1N1CCN(CC[C@H]2CC[C@H](Nc3ncccn3)CC2)CC1: 1.04

What reported log10 Ki corresponds to c1ccc(N2CCN(C[C@H]3CC[C@H](Nc4ncccn4)CC3)CC2)cc1 on D(3) dopamine receptor (Homo sapiens, UniProt P35462)? 1.95

Please do the same for C1=C(c2ccccc2)CCN(CC[C@H]2CC[C@H](Nc3ncccn3)CC2)C1 as well. 0.57
